In this section we review reported inhibition values for a set of compounds.
# systemName: Rhodesain (Trypanosoma brucei rhodesiense)
# assayOverview: Inhibition of Trypanosoma brucei rhodesiense rhodesain after 12 hrs by fluorescence spectroscopy-based on-bead assay
# Set-up: concentration or dose not given beside the values
# measurementConditions: concentration not given here
Square brackets hold non-standard residues; d marks the D form. Peptide text beside a SMILES is read from it. * marks the point of attachment. Fumaroyl(GlyGlyPheOH) = O=C(/C=C/C(=O)*)NCC(=O)NCC(=O)N[C@@H](Cc1ccccc1)C(=O)O; Chg = N[C@H](C(=O)O)C1CCCCC1; Dap = NC[C@H](N)C(=O)O
measurementType: inhibition (%)

compound	systemName	numericResult
CC(C)[C@H](NC(=O)[C@@H](NC(=O)[C@@H](NC(=O)[C@H](Cc1ccccc1)NC(=O)/C=C/C(=O)NCC(=O)NCC(=O)N[C@@H](Cc1ccccc1)C(=O)O)C1CCCCC1)C(C)C)C(N)=O (HELM PEPTIDE1{[O=C(/C=C/C(=O)[*:2])NCC(=O)NCC(=O)N[C@@H](Cc1ccccc1)C(=O)O].F.[O=C([C@@H](N[*:1])C1CCCCC1)[*:2]].V.V.[am]}$$$$V2.0)	Rhodesain (Trypanosoma brucei rhodesiense)	49
CC(C)C[C@H](NC(=O)[C@H](Cc1ccccc1)NC(=O)/C=C/C(=O)N[C@@H](C)C(=O)NCC(=O)N[C@@H](Cc1ccccc1)C(=O)O)C(=O)N[C@H](C(=O)N[C@H](C(N)=O)C(C)C)C(C)C (HELM PEPTIDE1{[C[C@H](NC(=O)/C=C/C(=O)[*:2])C(=O)NCC(=O)N[C@@H](Cc1ccccc1)C(=O)O].F.L.V.V.[am]}$$$$V2.0)	Rhodesain (Trypanosoma brucei rhodesiense)	45
CC(C)C[C@H](NC(=O)[C@H](Cc1ccccc1)NC(=O)[C@H](Cc1ccccc1)NC(=O)/C=C/C(=O)NCC(=O)NCC(=O)N[C@@H](Cc1ccccc1)C(=O)O)C(=O)N[C@H](C(N)=O)C(C)C (HELM PEPTIDE1{[O=C(/C=C/C(=O)[*:2])NCC(=O)NCC(=O)N[C@@H](Cc1ccccc1)C(=O)O].F.F.L.V.[am]}$$$$V2.0)	Rhodesain (Trypanosoma brucei rhodesiense)	52
CC(=O)NC[C@H](NC(=O)/C=C/C(=O)NCC(=O)NCC(=O)N[C@@H](Cc1ccccc1)C(=O)O)C(=O)N[C@H](C(=O)N[C@@H](C)C(=O)N[C@H](C(N)=O)C(C)C)c1ccccc1 (HELM PEPTIDE1{[O=C(/C=C/C(=O)[*:2])NCC(=O)NCC(=O)N[C@@H](Cc1ccccc1)C(=O)O].[O=C([C@H](CN[*:3])N[*:1])[*:2]].[Phg].A.V.[am]}|PEPTIDE2{[ac]}$PEPTIDE1,PEPTIDE2,2:R3-1:R2$$$V2.0)	Rhodesain (Trypanosoma brucei rhodesiense)	36
CC[C@H](C)[C@H](NC(=O)[C@H](CNC(C)=O)NC(=O)/C=C/C(=O)NCC(=O)NCC(=O)N[C@@H](Cc1ccccc1)C(=O)O)C(=O)N[C@H](C(=O)N[C@H](C(N)=O)C(C)C)C(C)C (HELM PEPTIDE1{[O=C(/C=C/C(=O)[*:2])NCC(=O)NCC(=O)N[C@@H](Cc1ccccc1)C(=O)O].[O=C([C@H](CN[*:3])N[*:1])[*:2]].I.V.V.[am]}|PEPTIDE2{[ac]}$PEPTIDE1,PEPTIDE2,2:R3-1:R2$$$V2.0)	Rhodesain (Trypanosoma brucei rhodesiense)	41
CC(C)[C@H](NC(=O)[C@H](C)NC(=O)[C@@H](NC(=O)[C@H](C)NC(=O)/C=C/C(=O)N[C@@H](C)C(=O)NCC(=O)N[C@@H](Cc1ccccc1)C(=O)O)C1CCCCC1)C(N)=O (HELM PEPTIDE1{[C[C@H](NC(=O)/C=C/C(=O)[*:2])C(=O)NCC(=O)N[C@@H](Cc1ccccc1)C(=O)O].A.[O=C([C@@H](N[*:1])C1CCCCC1)[*:2]].A.V.[am]}$$$$V2.0)	Rhodesain (Trypanosoma brucei rhodesiense)	26
CC(=O)NC[C@H](NC(=O)/C=C/C(=O)N[C@@H](C)C(=O)NCC(=O)N[C@@H](Cc1ccccc1)C(=O)O)C(=O)N[C@@H](CC(C)C)C(=O)N[C@@H](C)C(=O)N[C@H](C(N)=O)C(C)C (HELM PEPTIDE1{[C[C@H](NC(=O)/C=C/C(=O)[*:2])C(=O)NCC(=O)N[C@@H](Cc1ccccc1)C(=O)O].[O=C([C@H](CN[*:3])N[*:1])[*:2]].L.A.V.[am]}|PEPTIDE2{[ac]}$PEPTIDE1,PEPTIDE2,2:R3-1:R2$$$V2.0)	Rhodesain (Trypanosoma brucei rhodesiense)	19
CC(C)[C@H](NC(=O)[C@H](C)NC(=O)[C@@H](NC(=O)[C@H](Cc1ccccc1)NC(=O)/C=C/C(=O)NCC(=O)NCC(=O)N[C@@H](Cc1ccccc1)C(=O)O)c1ccccc1)C(N)=O (HELM PEPTIDE1{[O=C(/C=C/C(=O)[*:2])NCC(=O)NCC(=O)N[C@@H](Cc1ccccc1)C(=O)O].F.[Phg].A.V.[am]}$$$$V2.0)	Rhodesain (Trypanosoma brucei rhodesiense)	51
CC(C)[C@H](NC(=O)[C@H](C)NC(=O)[C@H](Cc1ccccc1)NC(=O)[C@H](Cc1ccccc1)NC(=O)/C=C/C(=O)N[C@@H](C)C(=O)NCC(=O)N[C@@H](Cc1ccccc1)C(=O)O)C(N)=O (HELM PEPTIDE1{[C[C@H](NC(=O)/C=C/C(=O)[*:2])C(=O)NCC(=O)N[C@@H](Cc1ccccc1)C(=O)O].F.F.A.V.[am]}$$$$V2.0)	Rhodesain (Trypanosoma brucei rhodesiense)	37
CC(C)C[C@H](NC(=O)[C@H](CC(N)=O)NC(=O)/C=C/C(=O)NCC(=O)NCC(=O)N[C@@H](Cc1ccccc1)C(=O)O)C(=O)N[C@@H](C)C(=O)N[C@H](C(N)=O)C(C)C (HELM PEPTIDE1{[O=C(/C=C/C(=O)[*:2])NCC(=O)NCC(=O)N[C@@H](Cc1ccccc1)C(=O)O].N.L.A.V.[am]}$$$$V2.0)	Rhodesain (Trypanosoma brucei rhodesiense)	24
CC(=O)NC[C@H](NC(=O)/C=C/C(=O)NCC(=O)NCC(=O)N[C@@H](Cc1ccccc1)C(=O)O)C(=O)N[C@H](C(=O)N[C@@H](C)C(=O)N[C@H](C(N)=O)C(C)C)C1CCCCC1 ({Fumaroyl(GlyGlyPheOH)}-[Dap](Ac)[Chg]AV-NH2)	Rhodesain (Trypanosoma brucei rhodesiense)	25
